Value source: patent US20110045082A1

# method.notes: Average diameter of agglomerates
# Type: physicochemical
# experimental.parameters: agglomerates as obtained after drying
value.kind: average diameter

Kindly give each listed record's average diameter.
1. O=C(O)[C@H]1/C(=C/CO)O[C@@H]2CC(=O)N21 [Example 2, potassium clavulanate]
2. O=C(O)[C@H]1/C(=C/CO)O[C@@H]2CC(=O)N21 [Example 6, potassium clavulanate]

Result ::
1: 500-1500 μm; 2: 10-200 μm

* * *

# method.notes: Average diameter of agglomerates
# Type: physicochemical
# experimental.parameters: agglomerates as obtained after drying
Can you tell me average diameter for the items I'm about to list?

Dear colleague, could you send me average diameter for each of the items below? Thanks.
1. O=C(O)[C@H]1/C(=C/CO)O[C@@H]2CC(=O)N21 [Example 7, potassium clavulanate]
2. O=C(O)[C@H]1/C(=C/CO)O[C@@H]2CC(=O)N21 [Example 1, potassium clavulanate]
3. O=C(O)[C@H]1/C(=C/CO)O[C@@H]2CC(=O)N21 [Example 3, potassium clavulanate]
4. O=C(O)[C@H]1/C(=C/CO)O[C@@H]2CC(=O)N21 [Example 4, potassium clavulanate]
5. O=C(O)[C@H]1/C(=C/CO)O[C@@H]2CC(=O)N21 [Example 5, potassium clavulanate]

Result ::
["500-1500 μm", "100-1000 μm", "1000 μm", "500-1000 μm", "50-250 μm"]
